# Test system: HEK-293T
# procedure_details: Multiplex assay against HEK293T
# Assay type: toxicity, cell-based
# run_conditions: human, 24 h, 10 µM, compound concentration 10 uM, replicate 1
quantity_kind: Population Fragmented Nuclei (%)
Write it as a number; the unit % goes unstated.

Study these solved cases before continuing.
{"columns": ["molecule", "Population Fragmented Nuclei (%)"],
 "data": [
  ["NC(=O)c1cccc(-c2cc(Nc3ccc(OC(F)(F)F)cc3)ncn2)c1", 16],
  ["O=C(Nc1cccnn1)N1CCC(=Cc2cccc(Oc3ccc(C(F)(F)F)cn3)c2)CC1", 9],
  ["Cn1nc(C(F)(F)F)cc1-c1cnc(N2CCc3cc(S(=O)(=O)Nc4c(F)cc(Cl)cc4F)cc(N4CCCC4=O)c32)nc1", 11],
  ["COc1cccc2cc(-c3nc([C@H]4CC[C@H](C(=O)O)CC4)n4ncnc(N)c34)[nH]c12", 29],
  ["COc1cc2ncnc(Nc3ccc(F)c(Cl)c3)c2cc1NC(=O)/C=C/CN1CCCCC1 [DACOMITINIB ANHYDROUS]", 11]
]}

### Prompt Supply Population Fragmented Nuclei (%) value. Item: CCOC(=O)c1c(C)[nH]c2ccc3c(c12)CN1CCc2cc(OC)ccc2C1O3 (stereo not drawn)
### Response 15

### Prompt Supply Population Fragmented Nuclei (%) value. Item: CNc1cc(Oc2cc(C(=O)Nc3cc(N4CCN(C)CC4)cc(C(F)(F)F)c3)ccc2C)ncn1
### Response 15

### Prompt Supply Population Fragmented Nuclei (%) value. Item: O=C(Nc1ccc(-c2ccnc(Nc3ccc(N4CCOCC4)cc3)n2)cc1)[C@@H]1CCCN1
### Response 18

====

# Tested on: Fibroblast
# procedure_details: Multiplex assay against human fibroblast
# Assay type: toxicity, cell-based
# run_conditions: 24 h, 1 µM, compound concentration 1 uM, replicate 1
Param threshold (50%) applies to Population Healthy Nuclei (%); output 1 when value >= threshold, 0 when value < threshold.

{"columns": ["compound", "target_or_test_system", "discrete_label"],
 "data": [
  ["C=C1/C(=C\\C=C2/CCC[C@]3(C)[C@@H]([C@H](C)/C=C/[C@H](C)C(C)C)CC[C@@H]23)C[C@@H](O)C[C@@H]1O", "Fibroblast", 0],
  ["Cc1cc(C)c(S(=O)(=O)N(Cc2ccc(-c3cccc(S(C)(=O)=O)c3)cc2)Cc2ccc(C(F)(F)F)o2)c(C)c1", "Fibroblast", 1],
  ["COc1cc2ncnc(Nc3ccc(F)c(Cl)c3)c2cc1NC(=O)/C=C/CN1CCCCC1 [DACOMITINIB ANHYDROUS]", "Fibroblast", 1],
  ["CCOc1cc2ncc(C#N)c(Nc3ccc(OCc4ccccn4)c(Cl)c3)c2cc1NC(=O)/C=C/CN(C)C", "Fibroblast", 0],
  ["CCN1CCN(c2ccc(Nc3cc(N(C)C(=O)Nc4c(Cl)c(OC)cc(OC)c4Cl)ncn3)cc2)CC1", "Fibroblast", 0]
]}

### Prompt Test whether the compound O=C(Nc1cccnn1)N1CCC(=Cc2cccc(Oc3ccc(C(F)(F)F)cn3)c2)CC1 records Population Healthy Nuclei (%) of 50% or higher.
### Response 1

### Prompt Test whether the compound CCCn1c(=O)c2[nH]c(-c3cnn(Cc4cccc(C(F)(F)F)c4)c3)nc2n(CC)c1=O records Population Healthy Nuclei (%) of 50% or higher.
### Response 0
